# Test system: Glucokinase (Homo sapiens)
# Assay notes: Activity of glucokinase assessed as stimulatory concentration required to increase 1.5 fold enzymatic activity
Endpoint label: Activity (µM)

compound="CNC(=O)NC(=O)C(CC1CCCCC1)c1ccc(Cl)c(Cl)c1 (configuration not stated)" endpoint_label=Activity val=1.4
compound="Cc1nc(NC(=O)C(CC2CCCC2)c2ccc(Cl)c(Cl)c2)sc1C (configuration not stated)" endpoint_label=Activity val=1.6
compound="O=C(O)c1cnc(NC(=O)C(CC2CCCC2)c2ccc(Cl)c(Cl)c2)s1 (configuration not stated)" endpoint_label=Activity val=26
compound="CCNC(=O)NC(=O)C(CC1CCCC1)c1ccc(Cl)c(Cl)c1 (configuration not stated)" endpoint_label=Activity val=0.53
compound="O=C(Nc1ncc(CO)s1)C(CC1CCCC1)c1ccc(Cl)c(Cl)c1 (configuration not stated)" endpoint_label=Activity val=0.75
compound="CSc1ccc(C(CC2CCCC2)C(=O)Nc2nccs2)cc1 (configuration not stated)" endpoint_label=Activity val=2.2

(a) CNC(=O)NC(=O)C(CC1CCCC1)c1ccc(Cl)c(Cl)c1 (configuration not stated)
(b) CNC(=O)NC(=O)C(CC1CCCC1)c1ccc(Br)cc1 (configuration not stated)
(c) O=C(Nc1nccs1)C(CC1CCCC1)c1ccc(SC(F)(F)F)cc1 (configuration not stated)
[ask] // ascending sort on recorded Activity Reply: labels, ordered per the request.
[reply] a, c, b
(a: 1 µM, c: 1.8 µM, b: 3.8 µM)

(a) CNC(=O)NC(=O)C(CC1CCCC1)c1ccc(SC(F)(F)F)cc1 (configuration not stated)
(b) O=C(O)Cc1csc(NC(=O)C(CC2CCCC2)c2ccc(Cl)c(Cl)c2)n1 (configuration not stated)
[ask] Just tell me: smaller Activity value, a or b ? Refer to your chosen entry by its label in the reply.
[reply] a

###

# Tested on: Glucokinase (Homo sapiens)
# Assay notes: Activity of glucokinase assessed as stimulatory concentration required to increase 1.5 fold enzymatic activity
Endpoint label: Activity (µM)

compound="CNC(=S)NC(=O)C(CC1CCCC1)c1ccc(Cl)c(Cl)c1 (centres undefined)" val=3.8

(a) CNC(=O)NC(=O)C(CC1CCCC1)c1ccc(SC)cc1 (centres undefined)
(b) CCOC(=O)CCNC(=O)NC(=O)C(CC1CCCC1)c1ccc(Cl)c(Cl)c1 (centres undefined)
(c) CNC(=O)NC(=O)C(CC1CCCC1)c1ccc(S(=O)(=O)C(F)(F)F)cc1 (centres undefined)
[ask] Arrange the 3 compounds from largest to smallest Activity. Returns: the labels arranged in the requested order.
[reply] b, a, c
